Data origin, for the record: PubChem BioAssay (NCI)

# Test system: SK-MEL-2 melanoma
# assayProtocol: NCI-60 one-dose screen, 48 h
# conditionsUsed: 10 µM unless noted
The panel holds about 83,000 compounds, 20% with a hit somewhere; the sample as a whole holds those more often. Calls of active or inactive are those of the source. How the source made its calls: active means growth percent below 10; inactive means the rest.
Possible outcomes: active, inactive

# compound, label
measured = [
    ("Cn1cc(CC2CC(=O)N(c3ccccc3)C2=O)sc1=NC(=O)c1ccccc1 (configuration not stated)", "inactive"),
    ("COC1=CC(=O)c2ccccc2C1=O", "inactive"),
    ("COc1ccc(/C=C2\\Oc3cc(OCCCN4CCCCC4)ccc3C2=O)cc1OC", "inactive"),
    ("COc1ccc(/C=C2\\Oc3cc(OCCCCCN4CCCCC4)ccc3C2=O)cc1OC", "inactive"),
    ("COc1ccc(CCn2cncc2-c2c[nH]c3ccccc23)cc1", "inactive"),
    ("O=C(Cn1c(C(=O)c2ccccc2)nc2ccccc21)c1ccc(F)cc1", "inactive"),
    ("Nc1c(C(=O)Nc2cccc3cnccc23)sc2nc3c(cc12)C(=O)CCC3", "inactive"),
    ("CN1CCN(CCNc2nccc(-c3c(-c4cccc(O)c4)nc4sccn34)n2)S1(=O)=O", "active"),
    ("O=[N+]([O-])c1cc(Br)c2cccc3c2c1CC3", "inactive"),
    ("NS(=O)(=O)c1ccc(CCN2C(=O)C3C(C2=O)C2(Cl)C(Cl)=C(Cl)C3(Cl)C2(Cl)Cl)cc1 (configuration not stated)", "inactive"),
    ("CCOC(=O)C1=C(CCl)NC(=O)NC1c1ccc2c(c1)OCO2 (configuration not stated)", "inactive"),
    ("N#CC1=C(N)Oc2c(cnn2-c2ccc([N+](=O)[O-])cc2[N+](=O)[O-])C1c1ccccc1 (configuration not stated)", "inactive"),
    ("C[C@H]1[C@H](C)CC[C@]2(C(=O)Nc3ccc4ncccc4c3)CC[C@]3(C)C(=CC[C@@H]4[C@@]5(C)CCCNC(C)(C)[C@@H]5CC[C@]43C)[C@H]12", "inactive"),
    ("[O-][n+]1c(Cl)cc(Cl)c2ccccc21", "inactive"),
    ("OCc1cnc2ccccc2c1NC1CCCCCC1", "inactive"),
    ("CN[C@@H](C)C(=O)N[C@H]1CCS[C@H]2CC(C)(C)[C@@H](C(=O)N[C@H]3c4ccccc4C[C@H]3OCC#CC#CCO[C@@H]3Cc4ccccc4[C@@H]3NC(=O)[C@H]3N4C(=O)[C@@H](NC(=O)[C@H](C)NC)CCS[C@H]4CC3(C)C)N2C1=O", "inactive"),
    ("O=C(Cn1c[n+](CC(=O)c2ccc([N+](=O)[O-])cc2)c2ccccc21)Nc1cccc2cccnc12", "inactive"),
    ("CCCOC(=O)N[C@H]1CCc2c(Cl)c(OC)c(OC)c(OC)c2-c2ccc(SC)c(=O)cc21", "inactive"),
    ("C=CC(=O)N[C@@H](/C=C/C(=O)OCC)Cc1ccc(-c2cc(Cl)cc(Cl)c2)cc1", "inactive"),
    ("NC(=O)Nc1ccc(-n2cnc3cc(-c4ccc(O)cc4)ccc32)cc1", "inactive"),
    ("O=C1/C=C/[C@@H](O)[C@@H]2C[C@@H](O)C[C@H]2/C=C/CCC[C@H](CCc2cccc3ccccc23)O1", "active"),
    ("COc1ccc(N2CCN(c3ccc(NC4=C(Cl)C(=O)c5ncccc5C4=O)cc3)CC2)cc1", "inactive"),
    ("COc1ccc2nc(-c3ccc(-c4noc(-c5cc(OC)c(OC)c(OC)c5)n4)cc3)[nH]c2c1", "inactive"),
    ("NC(=NCCCOc1ccc(F)cc1)Nc1ccc(I)cc1", "inactive"),
    ("CC(=O)O[C@@H]1C2CCC3C(CC[C@@]4(C)C3CC[C@@H]4C(C)N(C)C)[C@@]2(C)CC[C@@H]1NC(=O)C=C(C)C (some centres not stated)", "inactive"),
    ("Cn1cc(-c2csc(-c3c[nH]c4ccccc34)n2)c2ccnc(Cl)c21", "inactive"),
    ("O=[N+]([O-])CC(c1ccccc1F)c1c[nH]c2ccccc12 (configuration not stated)", "inactive"),
    ("NS(=O)(=O)c1ccc(CCn2c(SCC(=O)c3ccc(Cl)cc3)nc3ccccc3c2=O)cc1", "inactive"),
    ("Cc1ccc(C(=O)/C(=C\\c2ccc([N+](=O)[O-])cc2)S(=O)Cc2ccc(F)cc2)cc1 (configuration not stated)", "inactive"),
    ("COc1ccc(C(=O)C2C(C#N)C(C#N)C3c4ccccc4C=CN23)cc1 (configuration not stated)", "inactive"),
    ("C=C1C(=O)O[C@H]2[C@H]1CC/C(CNS(=O)(=O)c1cccc3ccccc13)=C\\CC[C@@]1(C)O[C@@H]21", "inactive"),
    ("O=C1C=CC(=O)N1c1cccc(Cl)c1", "inactive"),
]
